Data provenance is the Human Domainome abundance scans (Beltran et al. 2025).

B1: DnaJ homolog subfamily C member 2, residues 451 to 503; numbered along this chain, Q99543 (parent)
chain: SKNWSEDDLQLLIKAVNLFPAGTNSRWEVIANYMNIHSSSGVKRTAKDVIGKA

- Variants of: B1
- Test Details: abundance fitness (aPCA) (normalised: wild type 0, dead -1); higher = more abundant; growth selection in yeast, the domain comes from the species named
- Condition Label: Homo sapiens
Entries are grouped by abundance fitness into these classes: low end (below -0.5), middle (-0.5 to below -0.1), high end (-0.1 or more)

Use the examples below as a reference point.
Sequence	Assigned Label
SKNWSEDDLQLLIKAVTLFPAGTNSRWEVIANYMNIHSSSGVKRTAKDVIGKA	high end
SKNWSEDDLQLLIKAVNLFPAGTNSRWEVIDNYMNIHSSSGVKRTAKDVIGKA	low end

Now look at this entry.
Which class does "SKTWSEDDLQLLIKAVNLFPAGTNSRWEVIANYMNIHSSSGVKRTAKDVIGKA" fall in?
middle
